Hi there, I'd appreciate the recorded AC50 for every entry that follows.
- Assay system: Cytochrome P450 3A4 (Homo sapiens)
- Method summary: Cytochrome panel assay with activity outcomes
- Experimental parameters: recombinant CYP, pro-luciferin dealkylation, luminescence, p450-cyp3a4; series mostly up to 57.1 µM
Among all 16,000 compounds or so, about 5,100 (32%) were called active. Another 25% or so got no clear call; they are omitted. The list shows a part of the results.

Challenge: Entry COc1cc(C2C(C#N)=C(N)OC3=C2C(=O)CCC3)c([N+](=O)[O-])cc1OC (centres undefined) needs its AC50 filled in; supply it.
Response given: 11.2 µM (active)

Challenge: Entry COc1cccc(-c2nnc3sc(-c4ccc(C)cc4)nn23)c1 needs its AC50 filled in; supply it.
Response given: 7.94 µM (active)

Challenge: Entry COC(=O)[C@@]1(Cc2ccc(OC)cc2)[C@H]2c3cc(C(=O)N4CCCC4)n(CCn4cc([N+](=O)[O-])nc4C)c3C[C@H]2CN1C(=O)c1ccccc1 needs its AC50 filled in; supply it.
Response given: 3.98 µM (active)

Challenge: Entry Cc1ccc(C)c(S(=O)(=O)NCc2ccc(C(=O)N3CCC(Cc4ccccc4)CC3)cc2)c1 needs its AC50 filled in; supply it.
Response given: 2.24 µM (active)

Challenge: Entry COC(=O)c1ccc(NC(=O)c2ccccc2NS(=O)(=O)c2ccccc2)cc1 needs its AC50 filled in; supply it.
Response given: 7.94 µM (active)

Challenge: Entry CCCN1C(=O)C(Cc2nc3ccccc3c(=O)n2C)c2ccccc21 (centres undefined) needs its AC50 filled in; supply it.
Response given: 7.94 µM (active)

Challenge: Entry COc1ccc(C2C(C#N)=C(N)OC3=C2C(=O)CC(C)(C)C3)c([N+](=O)[O-])c1OC (centres undefined) needs its AC50 filled in; supply it.
Response given: 5.01 µM (active)

Challenge: Entry Cc1cc(C2C(C#N)=C(N)OC3=C2C(=O)CC(C)(C)C3)c(C)s1 (centres undefined) needs its AC50 filled in; supply it.
Response given: 3.55 µM (active)

Challenge: Entry CC1CCCC(NC(=O)c2n[nH]c(=O)c3ccccc23)C1C (centres undefined) needs its AC50 filled in; supply it.
Response given: 12.6 µM (active)

These measurements were taken from PubChem BioAssay AID1851.
